The origin of these recorded values is patent US20200207837A1.

Biological target: T1, activated KLK4 (human KLK4, C-terminal His tag, pro-KLK4 activated with thermolysin) (UniProt Q9Y5K2 31-254)
T1 chain: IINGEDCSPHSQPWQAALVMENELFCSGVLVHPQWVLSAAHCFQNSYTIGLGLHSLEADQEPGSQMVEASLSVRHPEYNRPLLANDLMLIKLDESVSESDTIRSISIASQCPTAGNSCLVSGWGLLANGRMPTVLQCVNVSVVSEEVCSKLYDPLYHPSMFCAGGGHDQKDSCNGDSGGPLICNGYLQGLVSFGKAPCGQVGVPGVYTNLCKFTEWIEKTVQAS
Experiment: peptide substrate degradation inhibition
pIC50: −log10 of the molar value.
Each entry below carries its reported pIC50.

Worked examples follow.
binder: KLK1 inhibitory peptide K10061 (designed binder) GSGMKETAAAKFERQHMDSPDLGTDDDDKAMADIGSANSDPQFGLFSKYRTPNCARNNIVDCFYYYKPVCGSDMSTYANECTLCMKIREGGHNIKIIRNGPCGASAAA
experimentalValue: < 6.00
//
binder: KLK1 inhibitory peptide K10071 (designed binder) GSGMKETAAAKFERQHMDSPDLGTDDDDKAMADIGSANSDPQFGLFSKYRTPNCDQNKYRDCHYYYKPVCGSDMSTYANECTLCMKIREGGHNIKIIRNGPCGASAAA
experimentalValue: < 6.00
//
binder: KLK1 inhibitory peptide K10066 (designed binder) GSGMKETAAAKFERQHMDSPDLGTDDDDKAMADIGSANSDPQFGLFSKYRTPNCSVALRDICWWTSEPVCGSDMSTYANECTLCMKIREGGHNIKIIRNGPCGASAAA
experimentalValue: < 6.00

Entry KLK4/KLK8 inhibitory peptide K41026 (designed binder) GSGMKETAAAKFERQHMDSPDLGTDDDDKAMADIGSANSDPQFGLFSKYRTPNCQRYKMRGCNRMYDPVCGSDMSTYANECTLCMKIREGGHNIKIIRNGPCGASAAA — recorded pIC50 = 6.53
